- Test system: TK-10 renal
- Assay overview: NCI-60 one-dose screen, 48 h (100 = growth as untreated, 0 = no growth, -100 = all killed)
- Test context: 10 µM unless noted
This is part of a sample that, as a whole, favours compounds with a hit. Of some 83,000 tested, about 20% had one in any assay.
Measurement type: growth (%)

[[record]]
compound = "Cn1ncc2c(=O)nc3c(-c4ccccc4)n[nH]n3c21"
measurement_type = "growth"
measured_value = 99.5

[[record]]
compound = "Cc1ccc(C2Oc3ccccc3C3CC(c4cccs4)=NN32)cc1 (stereo not given)"
measurement_type = "growth"
measured_value = 108

[[record]]
compound = "COc1ccc(C(=O)COc2ccc(/C=C3\\COc4ccc(OC)cc4C3=O)cc2)cc1"
measurement_type = "growth"
measured_value = 105

[[record]]
compound = "C#CC(F)(F)[C@]1(O)CC[C@H]2[C@@H]3CCC4=CC(=O)CCC4=C3[C@@H](c3ccc(C(C)=O)cc3)C[C@@]21C"
measurement_type = "growth"
measured_value = 114

[[record]]
compound = "Cn1ccnc1C(=O)/C=C/c1ccccc1"
measurement_type = "growth"
measured_value = 15.3


----------
growth overview
- Tested on: MALME-3M melanoma
- Assay overview: NCI-60 one-dose screen, 48 h (100 = growth as untreated, 0 = no growth, -100 = all killed)
- Test context: 10 µM unless noted
- Description: Cells are grown in 96 well plates and exposed to the test compound for 48 hours. Compounds are tested at a single concentration, which is 10^-5 M for most compounds. The reported endpoint is percent growth (GI% or GIPRCNT), where numbers from 0 - 100% represent growth inhibition, and numbers from -100% - 0 represent cell death. For example, a value of 40 represents 60% growth inhibition. A value of 0 means no net growth occurred over the course of the experiment. […]
Compounds without any hit were thinned out: in the full panel of roughly 83,000, 20% have a hit. Activity calls are given as the source filed them. The calls were made as follows: active = growth percent below 10; inactive = the rest.
Measurement type: growth

[[record]]
compound = "Cc1cc(C)nc(SC2=C(Nc3ccc(C)c(Cl)c3)C(=O)N(Cc3ccccc3)C2=O)n1"
measured_value = "66.4% [30 µM] (inactive)"

[[record]]
compound = "CCN=C1C=CC(=C(c2ccc(N)cc2)c2ccc(N(CC)CC)c(C)c2)C=C1"
measured_value = "-31% (active)"

[[record]]
compound = "O=C(O)c1ccc(NC(=O)c2ccc(-c3cccc([N+](=O)[O-])c3)o2)cc1"
measured_value = "86.4% (inactive)"

[[record]]
compound = "O=[N+]([O-])c1ccc(Nc2nc(NCCN3CCOCC3)ncc2[N+](=O)[O-])cc1"
measured_value = "91% (inactive)"

[[record]]
compound = "COC(=O)[C@@H]1CCCN1C(=O)[C@@H]1CCCN1C(=O)[C@H](Cc1ccccc1)NC(=S)Nc1cc(C(F)(F)F)cc(C(F)(F)F)c1"
measured_value = "94.8% (inactive)"

[[record]]
compound = "CC(=O)Oc1ccc(Cl)cc1CN(C(C)=O)C1CCCCC1"
measured_value = "111% (inactive)"

[[record]]
compound = "COc1cc2c(cc1O)CC[C@@H]1[C@@H]2CC[C@]2(C)[C@@H](OCCCN(C)C)CC[C@@H]12"
measured_value = "-76.1% (active)"

[[record]]
compound = "CC(C)(CCCN=C(N)Nc1ccc(Cl)cc1)c1ccc(F)cc1"
measured_value = "64.3% (inactive)"

[[record]]
compound = "CON1C(=O)CC[C@]2(C)[C@H]3CC[C@@H]4C([C@@]5(C)CCC(=O)O5)CC[C@@]4(C)[C@]3(C)CC[C@H]2C1(C)C (some centres undefined)"
measured_value = "105% (inactive)"

[[record]]
compound = "Cc1cc(N2CCOCC2)nc(N[C@@H]2CCC[C@H](Nc3ccnc4cc(Cl)ccc34)C2)n1"
measured_value = "-75.3% (active)"

[[record]]
compound = "Cn1cc(C(=O)c2nc(-c3c[nH]c4ccc(Br)cc34)no2)c2cc(F)ccc21"
measured_value = "96.1% (inactive)"

[[record]]
compound = "N#Cc1c(-c2ccc(Cl)cc2)nc(NN=Cc2ccco2)nc1N1CCOCC1"
measured_value = "42.4% (inactive)"

[[record]]
compound = "N#Cc1c(N)n(CCNC(=O)c2ccccc2)c2nc3ccccc3nc12"
measured_value = "120% (inactive)"

[[record]]
compound = "CC1SC(c2ccc(N(C)C)cc2)N(NC(=O)C(O)(c2ccccc2)c2ccccc2)C1=O (centres undefined)"
measured_value = "87.6% (inactive)"

[[record]]
compound = "COc1cc2nc(N3CCCC3)nc(NCc3ccccc3)c2cc1OC"
measured_value = "41.2% (inactive)"

[[record]]
compound = "C(=N/Nc1ncc(-c2cc3cc(-c4ccccc4)ccc3o2)s1)/c1cccs1"
measured_value = "97.8% (inactive)"

[[record]]
compound = "CCCCC[C@H]1C/C=C2/C(=O)C=C[C@@H]2C/C=C\\CCCC(=O)O1"
measured_value = "-24.8% (active)"

[[record]]
compound = "NCCNc1nc(Nc2ccc(-c3nc4ccccc4[nH]3)cc2)c2cn[nH]c2n1"
measured_value = "68% (inactive)"

[[record]]
compound = "O=C(Cc1ccccc1Nc1c(Cl)cccc1Cl)NN1C(=O)/C(=C/c2ccc(Br)cc2)SC1=S"
measured_value = "100% (inactive)"


----------
- System: SR leukemia
- Assay overview: NCI-60 one-dose screen, 48 h
- Test context: 10 µM unless noted
Compounds without any hit were thinned out: in the full panel of roughly 83,000, 20% have a hit. Active and inactive are the calls of the source. Rule for the calls: active = growth percent below 10; inactive = the rest.
Outcomes: 1.0 = active, 0.0 = inactive

[[record]]
compound = "CN(C)[C@@H]1C(=O)C(C(=O)NCc2nc3[nH]cnc(=S)c3[nH]2)=C(O)[C@@]2(O)C(=O)C3=C(O)c4c(O)cccc4[C@@](C)(O)[C@H]3C[C@@H]12"
system_name = "SR leukemia"
classification = 0.0

[[record]]
compound = "Cc1cc(C)nc(SC2=C(Nc3cccc(Cl)c3)C(=O)N(Cc3ccccc3)C2=O)n1"
system_name = "SR leukemia"
classification = 0.0

[[record]]
compound = "Clc1ccc2nc3nc4ccc[nH]c4cc3c2c1"
system_name = "SR leukemia"
classification = 0.0

[[record]]
compound = "Cc1cc(N2CCOCC2)nc(N[C@@H]2CCC[C@H](Nc3ccnc4cc(Cl)ccc34)C2)n1"
system_name = "SR leukemia"
classification = 1.0

[[record]]
compound = "CCC#CC[C@H](O)C/C=C1/C(=O)C=C[C@@H]1C/C=C\\CCCC(=O)OC"
system_name = "SR leukemia"
classification = 1.0

[[record]]
compound = "CSc1ccc(SC2c3ccc(C)cc3Oc3nc(N)c(C#N)c(N)c32)cc1 (stereo not drawn)"
system_name = "SR leukemia"
classification = 1.0

[[record]]
compound = "CCOC(=O)n1cc(-c2nonc2-c2cn(C)c3ncccc23)c2ccccc21"
system_name = "SR leukemia"
classification = 0.0

[[record]]
compound = "CN1CCN(c2ccc3nc(-c4ccc(OCCCCN5CCN(CCCCN6C(=O)c7cccc8cccc(c78)C6=O)CC5)cc4)[nH]c3c2)CC1"
system_name = "SR leukemia"
classification = 1.0

[[record]]
compound = "COc1ccc(C(=O)c2sc3nc(C)cc(C)c3c2N)cc1OC"
system_name = "SR leukemia"
classification = 0.0

[[record]]
compound = "Cc1ccc(C(SCC(N)C(=O)O)(c2ccccc2)c2ccc(C)cc2)cc1 (stereo not drawn)"
system_name = "SR leukemia"
classification = 1.0

[[record]]
compound = "CCN(CC)CCCCNc1c2ccc(Cl)cc2nc2ccc(OC)cc12"
system_name = "SR leukemia"
classification = 1.0

[[record]]
compound = "COc1ccc(C2Nc3c(c(C(C)(C)C)nn3-c3ccccc3)C(=O)CS2)cc1 (stereo not drawn)"
system_name = "SR leukemia"
classification = 0.0

[[record]]
compound = "CCOc1cc2c(cc1OCC)C(c1cc(OC)c(O)cc1Cl)NCC2 (stereo not drawn)"
system_name = "SR leukemia"
classification = 0.0

[[record]]
compound = "O=C(CCCCC(=O)N/N=C\\c1ccccc1O)N/N=C\\c1ccccc1O"
system_name = "SR leukemia"
classification = 0.0

[[record]]
compound = "O=C1/C(=C(/c2ccccc2)N2CCOCC2)Cc2ccccc21"
system_name = "SR leukemia"
classification = 0.0

[[record]]
compound = "CCOc1ccc(-n2nc(C(=O)Nc3ccccc3)nc2-c2cc(OC)c(OC)c(OC)c2)cc1"
system_name = "SR leukemia"
classification = 0.0

[[record]]
compound = "CCCCN1CCCn2c1nc1c2c(=O)n(CCC)c(=O)n1CCC"
system_name = "SR leukemia"
classification = 0.0

[[record]]
compound = "O=C1/C(=C/N2N=C(c3ccc4ccccc4c3)CC2c2ccccc2O)SC(=S)N1c1cccnc1 (stereo not drawn)"
system_name = "SR leukemia"
classification = 0.0


----------
- Tested on: MDA-MB-435 melanoma
- Assay overview: NCI-60 one-dose screen, 48 h
- Test context: 10 µM unless noted
About 83,000 compounds went through this panel and 20% of them were active in at least one assay; those are over-represented in the sample as a whole. Active and inactive are the calls of the source. Rule for the calls: active = growth percent below 10; inactive = the rest.
Labels: label 1 = active, label 0 = inactive

[[record]]
compound = "CCOc1cc2ncc(C#N)c(Nc3ccc(F)c(Cl)c3)c2cc1NC(=O)CC1CCSS1 (centres undefined)"
classification = "label 1"

[[record]]
compound = "O=C1NC(=S)N[C@H]1CC(=O)n1cnc2ccccc21"
classification = "label 0"

[[record]]
compound = "O=C(N/N=C/c1ccccc1O)c1ccccc1Nc1ccnc(C(F)(F)F)c1"
classification = "label 0"

[[record]]
compound = "COc1ccc(C2CC(c3ccc4ccccc4c3)=NN2/C=C2\\SC(=S)N(NC(=O)Cc3ccccc3Nc3c(Cl)cccc3Cl)C2=O)cc1 (centres undefined)"
classification = "label 1"

[[record]]
compound = "NC(N)=N/N=C(/c1ccccc1)c1ccc(F)cc1"
classification = "label 1"

[[record]]
compound = "O=C(Oc1cccnc1)c1ccsc1Nc1ccnc(C(F)(F)F)c1"
classification = "label 0"

[[record]]
compound = "COc1cccc(C2=NN3C(C2)c2cc(Br)cc(OC)c2OC32CCN(Cc3ccccc3)CC2)c1 (centres undefined)"
classification = "label 0"

[[record]]
compound = "COc1cc2c(cc1-c1c(C)noc1C)ncc1nc(C3CCCC3)n([C@H](C)COC(F)F)c12"
classification = "label 0"

[[record]]
compound = "CC(=O)c1nc2ccccc2n1CC(=O)c1cccc(Cl)c1"
classification = "label 1"

[[record]]
compound = "CN(C)CCCNc1c2ccccc2nc2ccccc12"
classification = "label 0"

[[record]]
compound = "COc1cc2c(cc1O)CC[C@@H]1[C@@H]2CC[C@]2(C)[C@@H](OCCCN(C)C)CC[C@@H]12"
classification = "label 1"

[[record]]
compound = "COC(=O)c1ccc2oc(NC(=O)c3ccc(Nc4ccc([N+](=O)[O-])cc4C)c([N+](=O)[O-])c3)nc2c1"
classification = "label 0"

[[record]]
compound = "CCOc1cc2ncc(C#N)c(Nc3ccc(OCc4cccc(F)c4)c(Cl)c3)c2cc1NC(=O)CC1CCSS1 (centres undefined)"
classification = "label 1"

[[record]]
compound = "N#CN1CC[C@H](C(=O)Nc2cc3cc(C(N)=O)ccc3cn2)C1"
classification = "label 1"

[[record]]
compound = "C=C(C)[C@@H]1CC[C@]2(C(N)=O)CC[C@]3(C)[C@H](CC[C@@H]4[C@@]5(C)C/C(=C/c6ccco6)C(=O)C(C)(C)[C@@H]5CC[C@]43C)[C@@H]12"
classification = "label 0"

[[record]]
compound = "COc1ccc(S(=O)(=O)N2CCCCCC2)cc1NC(=O)c1[nH]c(C)c2c1CCCCC2=O"
classification = "label 0"

[[record]]
compound = "Cc1ccc(NC(=O)C2CCC(CN3CCN(C)CC3)CC2)cc1Nc1nccc(-c2cccnc2)n1 (centres undefined)"
classification = "label 0"

[[record]]
compound = "C=CCSSc1ncnc2c1ncn2C1OC(CO)C(O)C1O (centres undefined)"
classification = "label 0"

[[record]]
compound = "COc1cc2nnc3c4cccnc4[nH]c3c2cc1OC"
classification = "label 0"


Where these numbers come from: PubChem BioAssay (NCI)
